The following compounds are shown together with reported viability, T/C values.
# Test system: 885512-296-R-J2-PDC complex spheroid viability
# Assay Text: Anticancer human tumor 885512-296-R-J2-PDC patient-derived breast carcinoma cell line growth inhibition [GQUAD]
# Test Settings: second compound 10 µM; first compound 10 µM; stronger effect = lower value
Measured Quantity: viability, T/C (%)

| Compound | Assayed System | Measured Quantity | Readout Value |
| --- | --- | --- | --- |
| COc1cc(C2c3cc4c(cc3C(OC3OC5COC(C)OC5C(O)C3O)C3COC(=O)C23)OCO4)cc(OC)c1O (stereo not given) + CN(C)c1ccc(Nc2c3ccc(NC(=O)CCN4CCCC4)cc3nc3cc(NC(=O)CCN4CCCC4)ccc23)cc1 | 885512-296-R-J2-PDC complex spheroid viability | viability, T/C | 8.35 |
| O=C(NO)c1cnc(N2CCN(S(=O)(=O)c3ccc4ccccc4c3)CC2)nc1 + Cc1[nH]c2ccc(F)cc2c1-c1nc2c3cccnc3c3ncccc3c2[nH]1 | 885512-296-R-J2-PDC complex spheroid viability | viability, T/C | 2.58 |
| CC1COCCN1c1cc(-c2ccnn2C)c2ccnc(-c3ccn[nH]3)c2n1 (stereo not given) + Cc1cnc(CNC(=O)c2c(=O)c3ccc(N4CCCN(C)CC4)nc3n3c2sc2ccccc23)cn1 | 885512-296-R-J2-PDC complex spheroid viability | viability, T/C | 0.11 |
| C=CCn1c(=O)c2cnc(Nc3ccc(N4CCN(C)CC4)cc3)nc2n1-c1cccc(C(C)(C)O)n1 + Cc1cnc(CNC(=O)c2c(=O)c3ccc(N4CCCN(C)CC4)nc3n3c2sc2ccccc23)cn1 | 885512-296-R-J2-PDC complex spheroid viability | viability, T/C | 0.81 |
| C#Cc1c(F)ccc2cc(O)cc(-c3ncc4c(N5CC6CCC(C5)N6)nc(OCC56CCCN5CC(F)C6)nc4c3F)c12 (stereo not given) + Cc1cnc(CNC(=O)c2c(=O)c3ccc(N4CCCN(C)CC4)nc3n3c2sc2ccccc23)cn1 | 885512-296-R-J2-PDC complex spheroid viability | viability, T/C | 0.16 |

====

The following compounds are shown together with reported IC50 values.
# Tested on: 885512-296-R-J2-PDC complex spheroid viability
# Assay Text: Anticancer human tumor 885512-296-R-J2-PDC cell line growth inhibition [GQUAD];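 also: spheroids exposed to the compounds for one week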
# Test Settings: curve of first compound; second compound 0.0316 µM

| Compound | Relational Operator | IC50 (nM) |
| --- | --- | --- |
| C#Cc1c(F)ccc2cc(O)cc(-c3ncc4c(N5CC6CCC(C5)N6)nc(OCC56CCCN5CC(F)C6)nc4c3F)c12 (stereo not given) + Cc1cnc(CNC(=O)c2c(=O)c3ccc(N4CCCN(C)CC4)nc3n3c2sc2ccccc23)cn1 | > | 10000 |
| C=CC(=O)N1CCN(c2nc(=O)n(-c3c(C)ccnc3C(C)C)c3nc(-c4c(O)cccc4F)c(F)cc23)C(C)C1 (stereo not given) + CN(C)c1ccc(Nc2c3ccc(NC(=O)CCN4CCCC4)cc3nc3cc(NC(=O)CCN4CCCC4)ccc23)cc1 | > | 10000 |
| COc1cc(C2c3cc4c(cc3C(OC3OC5COC(C)OC5C(O)C3O)C3COC(=O)C23)OCO4)cc(OC)c1O (stereo not given) + Cc1cnc(CNC(=O)c2c(=O)c3ccc(N4CCCN(C)CC4)nc3n3c2sc2ccccc23)cn1 | = | 318 |
| CC(=O)O[C@H]1C(=O)[C@@]2(C)[C@H]([C@H](OC(=O)c3ccccc3)[C@]3(O)C[C@H](OC(=O)[C@H](O)[C@@H](NC(=O)c4ccccc4)c4ccccc4)C(C)=C1C3(C)C)[C@]1(OC(C)=O)CO[C@@H]1C[C@@H]2O + CN(C)c1ccc(Nc2c3ccc(NC(=O)CCN4CCCC4)cc3nc3cc(NC(=O)CCN4CCCC4)ccc23)cc1 | < | 31.6 |
| C=CCn1c(=O)c2cnc(Nc3ccc(N4CCN(C)CC4)cc3)nc2n1-c1cccc(C(C)(C)O)n1 + Cc1cnc(CNC(=O)c2c(=O)c3ccc(N4CCCN(C)CC4)nc3n3c2sc2ccccc23)cn1 | = | 198 |
| Cc1[nH]c2ccccc2c1CCNCc1ccc(/C=C/C(=O)NO)cc1 + CN(C)c1ccc(Nc2c3ccc(NC(=O)CCN4CCCC4)cc3nc3cc(NC(=O)CCN4CCCC4)ccc23)cc1 | = | 26.3 |
| CC(C)(O)C1CCC(Nc2ccc3ncc(-c4cccc(C(F)(F)F)c4)n3n2)CC1 (stereo not given) + CN(C)c1ccc(Nc2c3ccc(NC(=O)CCN4CCCC4)cc3nc3cc(NC(=O)CCN4CCCC4)ccc23)cc1 | = | 1720 |
| CC[C@@]1(O)C(=O)OCc2c1cc1n(c2=O)Cc2cc3c(CN(C)C)c(O)ccc3nc2-1 + Cc1[nH]c2ccc(F)cc2c1-c1nc2c3cccnc3c3ncccc3c2[nH]1 | = | 26.3 |
| Nc1ccn(C2OC(CO)C(O)C2(F)F)c(=O)n1 (stereo not given) + Cc1[nH]c2ccc(F)cc2c1-c1nc2c3cccnc3c3ncccc3c2[nH]1 | < | 31.6 |
| COc1ccc([C@@H](O)c2cc(-c3ncnc4cc(N5CCOCC5)ccc34)c(F)cc2Cl)nn1 + Cc1cnc(CNC(=O)c2c(=O)c3ccc(N4CCCN(C)CC4)nc3n3c2sc2ccccc23)cn1 | = | 274 |

====

# Tested on: 885512-296-R-J2-PDC complex spheroid viability
# Assay Text: Anticancer human tumor 885512-296-R-J2-PDC cell line growth inhibition [GQUAD]; active = viability on the fitted dose curve at most 10% of control; inactive = the rest;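 also: spheroids exposed to the compounds for one week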
# Test Settings: second compound 3.16 µM; first compound 0.0316 µM
Classes used: Yes = active, No = inactive

| Compound | Group Label |
| --- | --- |
| COc1ccc([C@@H](O)c2cc(-c3ncnc4cc(N5CCOCC5)ccc34)c(F)cc2Cl)nn1 + CN(C)c1ccc(Nc2c3ccc(NC(=O)CCN4CCCC4)cc3nc3cc(NC(=O)CCN4CCCC4)ccc23)cc1 | No |
| C=CC(=O)N1CCN(c2nc(=O)n(-c3c(C)ccnc3C(C)C)c3nc(-c4c(O)cccc4F)c(F)cc23)C(C)C1 (stereo unspecified) + Cc1cnc(CNC(=O)c2c(=O)c3ccc(N4CCCN(C)CC4)nc3n3c2sc2ccccc23)cn1 | No |
| Cn1ncnc1[C@H]1c2n[nH]c(=O)c3cc(F)cc(c23)N[C@@H]1c1ccc(F)cc1 + Cc1cnc(CNC(=O)c2c(=O)c3ccc(N4CCCN(C)CC4)nc3n3c2sc2ccccc23)cn1 | No |
| O=C(c1cc(Cc2n[nH]c(=O)c3ccccc23)ccc1F)N1CCN(C(=O)C2CC2)CC1 + Cc1[nH]c2ccc(F)cc2c1-c1nc2c3cccnc3c3ncccc3c2[nH]1 | No |
| COc1ncnc(C2CC2)c1-c1ncc2cnn(Cc3ccc(-c4nc(C(F)(F)F)cn4C(C)C)cc3)c2n1 + Cc1[nH]c2ccc(F)cc2c1-c1nc2c3cccnc3c3ncccc3c2[nH]1 | Yes |
| CCCS(=O)(=O)Nc1ccc(F)c(C(=O)c2c[nH]c3ncc(-c4ccc(Cl)cc4)cc23)c1F + Cc1[nH]c2ccc(F)cc2c1-c1nc2c3cccnc3c3ncccc3c2[nH]1 | Yes |
| C=CC(=O)N1CCN(c2nc(=O)n(-c3c(C)ccnc3C(C)C)c3nc(-c4c(O)cccc4F)c(F)cc23)C(C)C1 (stereo unspecified) + CN(C)c1ccc(Nc2c3ccc(NC(=O)CCN4CCCC4)cc3nc3cc(NC(=O)CCN4CCCC4)ccc23)cc1 | No |
| C=CCn1c(=O)c2cnc(Nc3ccc(N4CCN(C)CC4)cc3)nc2n1-c1cccc(C(C)(C)O)n1 + Cc1cnc(CNC(=O)c2c(=O)c3ccc(N4CCCN(C)CC4)nc3n3c2sc2ccccc23)cn1 | No |
| CC(C)n1c(=O)n(C)c2cnc3cc(F)c(-c4ccc(OCCCN5CCCCC5)nc4)cc3c21 + CN(C)c1ccc(Nc2c3ccc(NC(=O)CCN4CCCC4)cc3nc3cc(NC(=O)CCN4CCCC4)ccc23)cc1 | No |
| CC1COCCN1c1cc(-c2ccnn2C)c2ccnc(-c3ccn[nH]3)c2n1 (stereo unspecified) + Cc1cnc(CNC(=O)c2c(=O)c3ccc(N4CCCN(C)CC4)nc3n3c2sc2ccccc23)cn1 | Yes |
| CCc1c2c(nc3ccc(O)cc13)-c1cc3c(c(=O)n1C2)COC(=O)[C@]3(O)CC + CN(C)c1ccc(Nc2c3ccc(NC(=O)CCN4CCCC4)cc3nc3cc(NC(=O)CCN4CCCC4)ccc23)cc1 | Yes |
| C#Cc1c(F)ccc2cc(O)cc(-c3ncc4c(N5CC6CCC(C5)N6)nc(OCC56CCCN5CC(F)C6)nc4c3F)c12 (stereo unspecified) + Cc1cnc(CNC(=O)c2c(=O)c3ccc(N4CCCN(C)CC4)nc3n3c2sc2ccccc23)cn1 | No |
| CCCS(=O)(=O)Nc1ccc(F)c(C(=O)c2c[nH]c3ncc(-c4ccc(Cl)cc4)cc23)c1F + Cc1cnc(CNC(=O)c2c(=O)c3ccc(N4CCCN(C)CC4)nc3n3c2sc2ccccc23)cn1 | No |
| CC[C@@]1(O)C(=O)OCc2c1cc1n(c2=O)Cc2cc3c(CN(C)C)c(O)ccc3nc2-1 + Cc1cnc(CNC(=O)c2c(=O)c3ccc(N4CCCN(C)CC4)nc3n3c2sc2ccccc23)cn1 | No |
| O=c1[nH]cc(F)c(=O)[nH]1 + CN(C)c1ccc(Nc2c3ccc(NC(=O)CCN4CCCC4)cc3nc3cc(NC(=O)CCN4CCCC4)ccc23)cc1 | No |
| Cc1[nH]c2ccccc2c1CCNCc1ccc(/C=C/C(=O)NO)cc1 + Cc1[nH]c2ccc(F)cc2c1-c1nc2c3cccnc3c3ncccc3c2[nH]1 | Yes |
| Cc1[nH]c2ccccc2c1CCNCc1ccc(/C=C/C(=O)NO)cc1 + CN(C)c1ccc(Nc2c3ccc(NC(=O)CCN4CCCC4)cc3nc3cc(NC(=O)CCN4CCCC4)ccc23)cc1 | No |
| CC[C@@]1(O)C(=O)OCc2c1cc1n(c2=O)Cc2cc3c(CN(C)C)c(O)ccc3nc2-1 + CN(C)c1ccc(Nc2c3ccc(NC(=O)CCN4CCCC4)cc3nc3cc(NC(=O)CCN4CCCC4)ccc23)cc1 | No |
| C=CC(=O)N1CCN(c2nc(=O)n(-c3c(C)ccnc3C(C)C)c3nc(-c4c(O)cccc4F)c(F)cc23)C(C)C1 (stereo unspecified) + Cc1[nH]c2ccc(F)cc2c1-c1nc2c3cccnc3c3ncccc3c2[nH]1 | No |
| COc1cccc2c1C(=O)c1c(O)c3c(c(O)c1C2=O)CC(O)(C(=O)CO)CC3OC1CC(N)C(O)C(C)O1 (stereo unspecified) + Cc1cnc(CNC(=O)c2c(=O)c3ccc(N4CCCN(C)CC4)nc3n3c2sc2ccccc23)cn1 | No |
| CC(C)(O)C1CCC(Nc2ccc3ncc(-c4cccc(C(F)(F)F)c4)n3n2)CC1 (stereo unspecified) + CN(C)c1ccc(Nc2c3ccc(NC(=O)CCN4CCCC4)cc3nc3cc(NC(=O)CCN4CCCC4)ccc23)cc1 | No |
